Tested on: SK-MEL-5 melanoma
Experiment: NCI tumour cell line growth inhibition, 48 h
Measured TGI accompanies every entry in the list below.
Express it in µM; write the number only.

Below: 10 compounds and their reported TGI.
CCOc1c(C#N)c2c(N)ncnc2n1C1OC(CO)C(O)C1O (stereo unspecified) :: 16.6
C=C1CC(COc2ccc3c(C)cc(=O)oc3c2)(c2ccccc2)OC1=O (stereo unspecified) :: 5.49
Cn1nc(-c2ccccc2)c(C(=O)/C=C/c2ccc(F)cc2)c(N2CCOCC2)c1=O :: 29.3
O=[N+]([O-])c1cccc2nc3ccccc3c(NCCCN3CCCCC3)c12 :: 0.0221
CCN(CC)CC(C)(C)C(=O)/C=C/c1ccc(/C=C/C(=O)C(C)(C)CN(CC)CC)cc1 :: 3.7
N#Cc1c(N)nc(N2CCSCC2)c(C#N)c1-c1ccc(O)cc1 :: 28
C=C1C(=O)OC2CC3(C)CCCC(C)C3=CC12 (stereo unspecified) :: 4.6
C=C1C(=O)OC2C1C(OC(=O)/C(C)=C\C)CC1(CO1)C1C(O)C=C(C)C21O (stereo unspecified) :: 17.7
CCOC(=O)c1csc(NC(=O)COc2cccc(/C=C3\CSc4ccccc4C3=O)c2)n1 :: 17.3
COc1ccc2c(-c3ccc(O)cc3)c(Oc3ccc(Cl)cc3)c(=O)oc2c1 :: 10.4

# TGI (compound: Cc1ccc(C2CC(c3cccc(Nc4ccncc4)c3)=NN2c2ccccc2)cc1 (stereo unspecified) ) is 3.24
